- tested_on: T1, human LAG-3 protein with hFc tag (hLAG-3-hFc protein) (human, UniProt P18627 23-450)
- T1 construct: also called immunogen 1; LAG-3 extracellular domain protein; not shown: human IgG Fc fragment (hFc) of the pCpC vector
- T1 sequence: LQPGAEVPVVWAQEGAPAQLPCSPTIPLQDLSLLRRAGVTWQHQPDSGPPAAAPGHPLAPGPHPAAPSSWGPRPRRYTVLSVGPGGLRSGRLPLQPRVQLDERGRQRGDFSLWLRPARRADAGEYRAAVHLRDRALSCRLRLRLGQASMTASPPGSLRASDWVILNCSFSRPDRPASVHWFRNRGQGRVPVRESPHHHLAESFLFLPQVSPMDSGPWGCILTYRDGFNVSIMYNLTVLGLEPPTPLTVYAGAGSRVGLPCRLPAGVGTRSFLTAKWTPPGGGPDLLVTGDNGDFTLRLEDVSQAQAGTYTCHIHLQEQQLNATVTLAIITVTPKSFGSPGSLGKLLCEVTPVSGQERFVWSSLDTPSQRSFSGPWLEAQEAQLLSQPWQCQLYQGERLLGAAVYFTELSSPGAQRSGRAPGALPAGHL
- assay_method_text: ELISA, hLAG-3-hFc coated; 0.0667 nM
readout_type: OD450 (OD450)
Please state the figure in OD450; there is no need to write the unit.

Ask: Give its OD450 value. Item: 105F1E10 (LAG-3 mouse-human chimeric antibody) (antibody, V domains shown) VH: EVQLQQSGPELVKPGASVKMSCRASGYTFTDFKMHWMKQSHGKSLEWIGYIAPNNGGTAYNQKFRGKATLTVNESSNTAYMELRSLTSEDSAVYYCVDWDDVDYWGQGTTLTVSS VL: DIKMTQSPSSMYASLGERVTITCKASQDINSYLSWFQQKSGKSPKTLIYRANRLVDGVPSRFSGSGSGQDYSLTISSLEYEDMGIYYCLQYVEFPLTFGAGTKLELK
Result: 1.29
